Tested On: human intermediate-conductance, calcium-activated K+ channels (h-IK1) (Homo sapiens)
Method Description: Rubidium efflux assay (86Rb+ efflux, CHO-K1 cells expressing h-IK1)
Test Settings: hIK1 in CHO-K1 cells; 86Rb+ efflux stimulated with ionomycin; drug 0.01-30 μM, 6 min preincubation, 10 min efflux; read-out: IK1 Inhibitory Activity
pIC50: −log10 of the molar value.
Metric Name: pIC50

For orientation, consider the following solved cases.
Request: # query: pIC50 of entry N=C(N)C(c1cccc(F)n1)(c1cccc(F)n1)c1cccc(F)n1 [Example 15]
Result: 5.00 to 6.00

Request: # query: pIC50 of entry COc1ccc(C(C(=N)NO)(c2ccc(OC)cc2)c2ccc(OC)cc2)cc1 [Example 31]
Result: < 5.00

Request: # query: pIC50 of entry COc1ccc(C(C(=N)NO)(c2ccccc2)c2ccccc2)cc1 [Example 12]
Result: 6.00 to 6.30

Request: # query: pIC50 of entry CON=CC(c1ccccc1)(c1ccccc1)c1ccccc1Cl [Example 7]
Result: > 6.30

Request: # query: pIC50 of entry CN=C(OC)C(c1ccccc1)(c1ccc(F)cc1)c1ccc(F)cc1 [Example 29]
Result: 5.00 to 6.00

Request: # query: pIC50 of entry CCONC(=N)C(c1ccc(F)cc1)(c1ccc(F)cc1)c1ccc(F)cc1 [Example 4]
Result: > 6.30

Request: # query: pIC50 of entry N=C(NO)C(c1ccccc1)(c1ccccc1)c1ccc(O)cc1 [Example 24]
Result: 5.00 to 6.00

Request: # query: pIC50 of entry N=C(N)C(c1ccccc1)(c1ccccc1)c1ccccc1 [Example 22, 2,2,2-Triphenyl-acetamidine]
Result: 5.00 to 6.00

New cases:
Request: # query: pIC50 of entry `N=C(NO)C(c1ccccc1)(c1ccccc1)c1ccccc1Cl`
Result: > 6.30

Request: # query: pIC50 of entry N=C(N)C(c1ccc(F)cc1)(c1ccc(F)cc1)c1ccc(F)cc1 [Example 18, 2,2,2-Tris-(4-fluoro-phenyl)-acetamidine]
Result: 5.00 to 6.00

====

Quick list: IC50 per entry.
Tested On: human intermediate-conductance, calcium-activated K+ channels (h-IK1) (Homo sapiens)
Method Description: Rubidium efflux assay (86Rb+ efflux, CHO-K1 cells expressing h-IK1)
Test Settings: hIK1 in CHO-K1 cells; 86Rb+ efflux stimulated with ionomycin; drug 0.01-30 μM, 6 min preincubation, 10 min efflux; read-out: IK1 Inhibitory Activity

For orientation, consider the following solved cases.
Request: # query: IC50 of entry `N=C(NO)C(c1cccc(F)c1)(c1cccc(F)n1)c1cccc(F)n1`
Result: 1000 to 10000 nM

Request: # query: IC50 of entry `CONC(=N)C(c1ccc(F)cc1)(c1ccc(F)cc1)c1ccc(F)cc1`
Result: 1000 to 10000 nM

Request: # query: IC50 of entry `N=C(NO)C(c1ccccc1)(c1ccccc1)c1cccc(F)n1`
Result: 500 to 1000 nM

Request: # query: IC50 of entry `COC(=N)C(c1ccccc1)(c1ccc(F)cc1)c1ccc(F)cc1`
Result: 1000 to 10000 nM

Kindly review the next compound as well.
Request: # query: IC50 of entry `COC(=N)C(c1ccc(F)cc1)(c1ccc(F)cc1)c1ccc(F)cc1`
Result: 1000 to 10000 nM

====

Tested On: human intermediate-conductance, calcium-activated K+ channels (h-IK1) (Homo sapiens)
Method Description: Rubidium efflux assay (86Rb+ efflux, CHO-K1 cells expressing h-IK1)
Test Settings: hIK1 in CHO-K1 cells; 86Rb+ efflux stimulated with ionomycin; drug 0.01-30 μM, 6 min preincubation, 10 min efflux; read-out: IK1 Inhibitory Activity
pIC50: −log10 of the molar value.
Metric Name: pIC50

For orientation, consider the following solved cases.
Request: # query: pIC50 of entry N=C(NO)C(c1cccc(F)n1)(c1cccc(F)n1)c1cccc(F)n1 [Example 30]
Result: < 5.00

Request: # query: pIC50 of entry Cc1ccc(C(C(=N)N)(c2cccc(F)c2)c2cccc(F)c2)cn1 [Example 17]
Result: 5.00 to 6.00

Request: # query: pIC50 of entry CC(C)ONC(=N)C(c1ccc(F)cc1)(c1ccc(F)cc1)c1ccc(F)cc1 [Example 20]
Result: 5.00 to 6.00

Kindly review the next compound as well.
Request: # query: pIC50 of entry N=C(N)C(c1ccccc1)(c1ccc(F)cc1)c1ccc(F)cc1 [Example 21]
Result: 5.00 to 6.00

====

Tested On: human intermediate-conductance, calcium-activated K+ channels (h-IK1) (Homo sapiens, UniProt O15554)
Method Description: Rubidium efflux assay (86Rb+ efflux, CHO-K1 cells expressing h-IK1)
Test Settings: hIK1 in CHO-K1 cells; 86Rb+ efflux stimulated with ionomycin; drug 0.01-30 μM, 6 min preincubation, 10 min efflux; read-out: IK1 Inhibitory Activity
Metric Name: IC50

Request: # query: IC50 of entry Cc1nc(C(c2ccccc2)(c2ccccc2)c2cccc(F)n2)no1 [Example 16]
Result: 1 to 10 µM

Request: # query: IC50 of entry N=C(NO)C(c1ccccc1)(c1ccc(O)cc1)c1ccc(O)cc1 [Example 32]
Result: > 10 µM

New cases:
Request: # query: IC50 of entry ON=CC(c1ccccc1)(c1ccccc1)c1ccccc1Cl [Example 6]
Result: < 0.5 µM

====

Quick list: IC50 per entry.
Tested On: human intermediate-conductance, calcium-activated K+ channels (h-IK1) (Homo sapiens)
Method Description: Rubidium efflux assay (86Rb+ efflux, CHO-K1 cells expressing h-IK1)
Test Settings: hIK1 in CHO-K1 cells; 86Rb+ efflux stimulated with ionomycin; drug 0.01-30 μM, 6 min preincubation, 10 min efflux; read-out: IK1 Inhibitory Activity

For orientation, consider the following solved cases.
Request: # query: IC50 of entry N=C(NO)C(c1ccccc1)(c1ccccc1)c1ccccc1 [Example 11, N-Hydroxy-2,2,2-triphenyl-acetamidine]
Result: 500 to 1000 nM

Request: # query: IC50 of entry N=C(NN)C(c1ccc(F)cc1)(c1ccc(F)cc1)c1ccc(F)cc1 [Example 10]
Result: 500 to 1000 nM

New cases:
Request: # query: IC50 of entry N=C(NN)C(c1ccccc1)(c1ccc(F)cc1)c1ccc(F)cc1 [Example 9]
Result: 500 to 1000 nM

Request: # query: IC50 of entry COc1ccc(C(C(=N)NO)(c2ccccc2)c2ccc(OC)cc2)cc1 [Example 23]
Result: 1000 to 10000 nM

Request: # query: IC50 of entry CC(=NN)C(c1ccccc1)(c1ccccc1)c1ccccc1 [Example 25]
Result: 1000 to 10000 nM

Request: # query: IC50 of entry CC(=NO)C(c1ccccc1)(c1ccccc1)c1ccccc1 [Example 34, 1,1,1-Triphenyl-propan-2-one oxime]
Result: > 10000 nM

Request: # query: IC50 of entry N=C(NO)C(c1ccc(F)cc1)(c1ccc(F)cc1)c1ccccc1Cl [Example 5]
Result: < 500 nM

Request: # query: IC50 of entry CON=C(C)C(c1ccccc1)(c1ccccc1)c1ccccc1 [Example 26]
Result: 1000 to 10000 nM

====

Quick list: IC50 per entry.
Tested On: human intermediate-conductance, calcium-activated K+ channels (h-IK1) (Homo sapiens, UniProt O15554)
Method Description: Rubidium efflux assay (86Rb+ efflux, CHO-K1 cells expressing h-IK1)
Test Settings: hIK1 in CHO-K1 cells; 86Rb+ efflux stimulated with ionomycin; drug 0.01-30 μM, 6 min preincubation, 10 min efflux; read-out: IK1 Inhibitory Activity

For orientation, consider the following solved cases.
Request: # query: IC50 of entry `N=C(NO)C(c1ccccc1)(c1ccc(F)cc1)c1ccc(F)cc1`
Result: < 500 nM

Request: # query: IC50 of entry `N=C(NO)C(c1ccc(F)cc1)(c1ccc(F)cc1)c1ccc(F)cc1`
Result: < 500 nM

New cases:
Request: # query: IC50 of entry `CCON=C(C)C(c1ccccc1)(c1ccccc1)c1ccccc1`
Result: > 10000 nM

Request: # query: IC50 of entry N=C(NO)C(c1ccccc1)(c1ccc(F)cc1)c1ccccc1F (centres unmarked)
Result: < 500 nM

Request: # query: IC50 of entry `CONC(=N)C(c1ccccc1)(c1ccc(F)cc1)c1ccc(F)cc1`
Result: < 500 nM
